Quick reference: log10 EC50 of the listed items.
# assay-system: Muscarine M4 (GPCR-A-MA-ACH M4) (Homo sapiens, UniProt P08173)
# Construct: expressed in transfected cells; host or cells: CHO cells
# Sequence (P08173 whole entry): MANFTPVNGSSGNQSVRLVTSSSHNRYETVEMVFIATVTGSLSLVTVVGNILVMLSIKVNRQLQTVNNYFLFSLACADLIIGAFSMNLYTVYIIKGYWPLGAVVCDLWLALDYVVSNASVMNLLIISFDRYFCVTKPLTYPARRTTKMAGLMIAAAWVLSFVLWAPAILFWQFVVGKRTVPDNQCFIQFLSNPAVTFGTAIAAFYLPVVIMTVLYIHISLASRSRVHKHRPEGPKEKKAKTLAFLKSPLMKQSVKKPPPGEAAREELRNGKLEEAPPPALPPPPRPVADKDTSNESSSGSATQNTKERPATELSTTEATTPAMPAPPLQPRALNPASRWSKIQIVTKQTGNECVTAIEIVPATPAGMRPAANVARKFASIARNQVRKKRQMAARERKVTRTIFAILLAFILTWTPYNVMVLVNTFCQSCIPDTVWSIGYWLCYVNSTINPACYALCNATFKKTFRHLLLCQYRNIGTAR
# protocol-summary: Muscarine M4 cell-based functional assay (CHO cells, Ca2+ - Aequorin luminescence)
# Experimental: Compounds were dissolved in DMSO (10 mM) and diluted in assay buffer to test concentration. […] Cells were incubated with compound and the response indicated was measured. The results are expressed as a percent of reference agonist values and blanks in the presence of the test compound, percent stimulation for agonist mode; for the antagonist mode (test compound in the presence of reference agonist) as percent inhibition. […]
measured-attribute: log10 EC50 (log10 of the value in nM)

[
  {
    "compound": "CCSc1c[nH]nc1C1CN2CCC1CC2 (centres unmarked) [Compound 49D]",
    "measured-attribute": "log10 EC50",
    "endpoint-result": 2.20
  },
  {
    "compound": "CSc1c[nH]nc1C1CN2CCC1CC2 (centres unmarked) [Compound 49C]",
    "measured-attribute": "log10 EC50",
    "endpoint-result": 2.70
  },
  {
    "compound": "CCCCCSc1c[nH]nc1C1CN2CCC1CC2 (centres unmarked) [Compound 49B]",
    "measured-attribute": "log10 EC50",
    "endpoint-result": 0.80
  },
  {
    "compound": "CCCCSc1c[nH]nc1C1CN2CCC1CC2 (centres unmarked) [Compound 49A]",
    "measured-attribute": "log10 EC50",
    "endpoint-result": 1.60
  },
  {
    "compound": "CCCOc1c[nH]nc1C1CN2CCC1CC2 (centres unmarked) [Compound 52B]",
    "measured-attribute": "log10 EC50",
    "endpoint-result": 2.00
  },
  {
    "compound": "CCCCCCSc1c[nH]nc1C1CN2CCC1CC2 (centres unmarked) [Compound 49F]",
    "measured-attribute": "log10 EC50",
    "endpoint-result": 1.10
  },
  {
    "compound": "O=C1CCCN1CC#CCN1CCCC1 [oxotremorine, reference compound]",
    "measured-attribute": "log10 EC50",
    "endpoint-result": 1.60
  },
  {
    "compound": "FC(F)=CCCSc1c[nH]nc1C1CN2CCC1CC2 (centres unmarked) [Compound 49I]",
    "measured-attribute": "log10 EC50",
    "endpoint-result": 1.30
  },
  {
    "compound": "CCCSc1c[nH]nc1C1CN2CCC1CC2 (centres unmarked) [Compound 49E]",
    "measured-attribute": "log10 EC50",
    "endpoint-result": 1.90
  }
]
